Where do these numbers come from? They come from patent US20260365653A1.

test system: BA/F3 (insSVD) cells; experiment: Ba/F3-EGFR-insSVD cell survival assay (Cell Titer-Glo); assay type: cell-based; conditions: Mus musculus, BaF3, 48 h, Table 3a, cell survival, Cell Titer-Glo, with 10 ng/ml EGF, without IL-3
pIC50: −log10 of the molar value.
Please use y whenever pIC50 is not below 7, and n whenever it is.

INSERT INTO results (compound, class_name) VALUES
  ('CN(C)C/C=C/C(=O)N1CCn2nc(-c3ccc(F)cc3)c(-c3ccnc4[nH]ccc34)c2C1 [Example 98]', 'n'),
  ('COC/C=C/C(=O)N1CCn2nc(-c3ccc(F)cc3)c(-c3ccncc3)c2C1 [Example 66]', 'n'),
  ('CN(C)CC#CC(=O)N1CCn2nc(-c3ccc(F)cc3)c(-c3ccncc3)c2C1 [Example 65]', 'y'),
  ('C=CC(=O)N1Cc2c(-c3ccncc3)c(-c3ccc(Cl)cc3F)nn2C(C)C1 (single isomer, unassigned; isomer 1) [Example 282]', 'y');
